Target: human androgen receptor (Homo sapiens, UniProt P10275)
Sequence (P10275 1-920): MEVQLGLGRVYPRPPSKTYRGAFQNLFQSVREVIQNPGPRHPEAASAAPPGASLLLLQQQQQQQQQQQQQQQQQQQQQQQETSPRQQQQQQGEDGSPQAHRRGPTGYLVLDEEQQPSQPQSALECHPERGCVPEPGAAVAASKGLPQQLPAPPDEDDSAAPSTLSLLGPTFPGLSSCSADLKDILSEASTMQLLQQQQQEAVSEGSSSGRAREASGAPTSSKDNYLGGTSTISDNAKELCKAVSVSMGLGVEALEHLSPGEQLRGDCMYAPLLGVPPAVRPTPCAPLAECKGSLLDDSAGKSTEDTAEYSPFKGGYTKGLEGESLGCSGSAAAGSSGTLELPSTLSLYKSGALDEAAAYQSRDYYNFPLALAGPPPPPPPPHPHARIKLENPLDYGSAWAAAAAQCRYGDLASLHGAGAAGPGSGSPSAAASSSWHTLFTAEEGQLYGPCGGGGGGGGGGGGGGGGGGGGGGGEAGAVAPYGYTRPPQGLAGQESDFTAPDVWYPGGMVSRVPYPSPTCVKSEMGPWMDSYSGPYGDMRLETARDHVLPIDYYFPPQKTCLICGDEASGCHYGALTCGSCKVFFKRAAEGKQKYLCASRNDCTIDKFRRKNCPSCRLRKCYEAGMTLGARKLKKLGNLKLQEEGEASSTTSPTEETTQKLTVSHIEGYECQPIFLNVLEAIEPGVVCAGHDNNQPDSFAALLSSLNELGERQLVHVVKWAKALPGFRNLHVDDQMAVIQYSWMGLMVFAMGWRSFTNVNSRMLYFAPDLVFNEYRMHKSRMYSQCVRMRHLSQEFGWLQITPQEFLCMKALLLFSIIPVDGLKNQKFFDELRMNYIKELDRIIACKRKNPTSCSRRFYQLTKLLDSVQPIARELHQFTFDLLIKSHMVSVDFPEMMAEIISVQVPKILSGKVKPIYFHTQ
Experiment: Yeast Antiandrogen Screen (YAAS), reporter gene assay
Details: authentic standards 300 nM to 1 mM in ethanol, coincubated with 2.5 nM testosterone, 24 h; three experiments; four-parameter logistic function; read-out: IC50, antiandrogenic in the YAAS
pIC50: −log10 of the molar value.
observed.property: pIC50

I. CCCCCCCCOC(=O)/C=C\C(=O)OCCCCCCCC
II. CCCCCCCCOC(=O)/C=C/C(=O)OCCCCCCCC
Look at I and II . Which one has the lower recorded pIC50 number? Please indicate the selected item by its label. I

Cited source: paper PMC3756062
